Reference source for all entries: PubChem BioAssay (NCI)

# Tested on: MALME-3M melanoma
# EXPERIMENT NOTES: NCI tumour cell line growth inhibition, 48 h
READOUT: TGI (µM)
Quick note: give the figure in µM, leave out the unit.

Some solved entries appear below for comparison.
| MOLECULE | VALUE MEASURED |
| --- | --- |
| CCCSS[C@H]1NC(=O)[C@H]1NC(=O)COc1ccccc1 | 26.9 |
| CN(Cc1cc(C(C)(C)C)cc(Br)c1O)Cc1cc(C(C)(C)C)cc(Br)c1O | 13.7 |
| Cc1cnc(C(=O)NNc2nc3sc4c(c3c(=O)n2C)C(C)CCC4)cn1 (configuration not stated) | 3.29 |
| Cc1ccc2c(c1)-c1nc(N)c(C#N)c(-c3ccccc3)c1CCS2(=O)=O | 87.3 |
| CC(C)/C(Cl)=N\OC(=O)Nc1cccc(Cl)c1 | 24.1 |

Entry C[N+]1=C(/C=C\C=C\c2ccccc2)C(C)(C)c2ccccc21 : reported TGI = ?
4.37

And for O=c1c(-c2ccccc2)coc2cc(OC/C(=N/O)c3ccccc3)ccc12 ?
28.3

And for CCN(CC)c1ccc(N=Nc2ccc(-c3nc4ccc[n+](C)c4o3)cc2)cc1 ?
4.31

And for CC1=C(C)Cc2c(O)ccc(O)c2C1 ?
31.6

And for Oc1ccc(-c2nc3ccc(Cl)cc3s2)cc1 ?
36

And for N[C@H]1CCCC[C@@H]1N1C(=O)c2ccccc2C1(O)c1ccc(Cl)cc1 (some centres not stated) ?
27.8
